Test system: SETVI Foxtail, Green
TEST DESCRIPTION: Postemergence herbicidal evaluation, SETVI
Format: in vivo, Setaria viridis, (L.) Beau
Set-up: scale not given here
SETTINGS: 0.016 kg/ha, postemergence spray, rated about two-three weeks after treatment
MEASURED PROPERTY: Postemergence herbicidal rating SETVI
Output spec: single numeric token, no unit.

Take a look at these entries with their results.
COMPOUND: COC(=O)COc1ccc(-n2nnc3cc(F)c(-n4c(=O)cc(C(F)(F)F)n(C)c4=O)cc32)c(C)c1
RECORDED MEASUREMENT: 0.0

COMPOUND: Cc1ccc(OCC(=O)O)cc1-n1nnc2cc(F)c(-n3c(=O)cc(C(F)(F)F)n(C)c3=O)cc21
RECORDED MEASUREMENT: 0.0

COMPOUND: COc1ccc(-n2nnc3cc(F)c(-n4c(=O)cc(C(F)(F)F)n(C)c4=O)cc32)c(C)c1
RECORDED MEASUREMENT: 0.0

COMPOUND: COC(=O)COc1ccc(C)c(-n2nnc3cc(F)c(-n4c(=O)cc(C(F)(F)F)n(C)c4=O)cc32)c1
RECORDED MEASUREMENT: 0.0

COMPOUND: COc1ccc(C)cc1-n1nnc2cc(F)c(-n3c(=O)cc(C(F)(F)F)n(C)c3=O)cc21
RECORDED MEASUREMENT: 5.0

COMPOUND: CCc1ccc(-n2nnc3cc(F)c(-n4c(=O)cc(C(F)(F)F)n(C)c4=O)cc32)cc1
RECORDED MEASUREMENT: 1.0

INPUT: Request - read-out Postemergence herbicidal rating SETVI | tested on SETVI Foxtail, Green | compound Cc1ccc(O)cc1-n1nnc2cc(F)c(-n3c(=O)cc(C(F)(F)F)n(C)c3=O)cc21
OUTPUT: 0.0

INPUT: Request - read-out Postemergence herbicidal rating SETVI | tested on SETVI Foxtail, Green | compound Cc1ccc(-n2nnc3cc(F)c(-n4c(=O)cc(C(F)(F)F)n(C)c4=O)cc32)cc1
OUTPUT: 0.0

INPUT: Request - read-out Postemergence herbicidal rating SETVI | tested on SETVI Foxtail, Green | compound C=CCOc1ccc(-n2nnc3cc(F)c(-n4c(=O)cc(C(F)(F)F)n(C)c4=O)cc32)c(C)c1
OUTPUT: 1.0

INPUT: Request - read-out Postemergence herbicidal rating SETVI | tested on SETVI Foxtail, Green | compound COC(=O)COc1ccc(C)cc1-n1nnc2cc(F)c(-n3c(=O)cc(C(F)(F)F)n(C)c3=O)cc21
OUTPUT: 9.0

INPUT: Request - read-out Postemergence herbicidal rating SETVI | tested on SETVI Foxtail, Green | compound COc1ccc(-n2nnc3cc(F)c(-n4c(=O)cc(C(F)(F)F)n(C)c4=O)cc32)cc1
OUTPUT: 4.0

INPUT: Request - read-out Postemergence herbicidal rating SETVI | tested on SETVI Foxtail, Green | compound COC(=O)C(C)Oc1ccc(C)cc1-n1nnc2cc(F)c(-n3c(=O)cc(C(F)(F)F)n(C)c3=O)cc21 (centres unmarked)
OUTPUT: 9.0

INPUT: Request - read-out Postemergence herbicidal rating SETVI | tested on SETVI Foxtail, Green | compound C=CCOc1ccc(C)cc1-n1nnc2cc(F)c(-n3c(=O)cc(C(F)(F)F)n(C)c3=O)cc21
OUTPUT: 2.0

INPUT: Request - read-out Postemergence herbicidal rating SETVI | tested on SETVI Foxtail, Green | compound COc1ccccc1-n1nnc2cc(F)c(-n3c(=O)cc(C(F)(F)F)n(C)c3=O)cc21
OUTPUT: 5.0

INPUT: Request - read-out Postemergence herbicidal rating SETVI | tested on SETVI Foxtail, Green | compound COc1ccc(C)c(-n2nnc3cc(F)c(-n4c(=O)cc(C(F)(F)F)n(C)c4=O)cc32)c1
OUTPUT: 0.0

INPUT: Request - read-out Postemergence herbicidal rating SETVI | tested on SETVI Foxtail, Green | compound Cn1c(C(F)(F)F)cc(=O)n(-c2cc3c(cc2F)nnn3-c2ccc(OCC(=O)O)cc2)c1=O
OUTPUT: 4.0

====

Tested on: ECHOG Barnyardgrass
TEST DESCRIPTION: Preemergence herbicidal evaluation, ECHOG
Assay type: in vivo, Echinochloa crus-galli, (L.) Beau
Set-up: scale not given here
SETTINGS: preemergence, rate 0.062 kg/ha
MEASURED PROPERTY: ECHCG herbicidal rating
Output spec: single numeric token, no unit.

Take a look at these entries with their results.
COMPOUND: C#CCOC(=O)COc1ccc(C)cc1-n1nnc2cc(F)c(-n3c(=O)cc(C(F)(F)F)n(C)c3=O)cc21
ECHCG herbicidal rating: 0.0

COMPOUND: C=CCOc1ccc(C)cc1-n1nnc2cc(F)c(-n3c(=O)cc(C(F)(F)F)n(C)c3=O)cc21
ECHCG herbicidal rating: 3.0

INPUT: Field request: ECHCG herbicidal rating | item: COc1ccc(-n2nnc3cc(F)c(-n4c(=O)cc(C(F)(F)F)n(C)c4=O)cc32)c(C)c1
OUTPUT: 3.0

INPUT: Field request: ECHCG herbicidal rating | item: COc1ccc(Cl)cc1-n1nnc2cc(F)c(-n3c(=O)cc(C(F)(F)F)n(C)c3=O)cc21
OUTPUT: 7.0

INPUT: Field request: ECHCG herbicidal rating | item: Cc1ccc(OCC(=O)O)cc1-n1nnc2cc(F)c(-n3c(=O)cc(C(F)(F)F)n(C)c3=O)cc21
OUTPUT: 0.0

INPUT: Field request: ECHCG herbicidal rating | item: Cc1ccc(O)c(-n2nnc3cc(F)c(-n4c(=O)cc(C(F)(F)F)n(C)c4=O)cc32)c1
OUTPUT: 0.0

INPUT: Field request: ECHCG herbicidal rating | item: COC(=O)C(C)Oc1ccc(C)cc1-n1nnc2cc(F)c(-n3c(=O)cc(C(F)(F)F)n(C)c3=O)cc21 (stereo not shown)
OUTPUT: 0.0

====

System: ECHOG Barnyardgrass
TEST DESCRIPTION: Postemergence herbicidal evaluation, ECHOG
Format: in vivo, Echinochloa crus-galli, (L.) Beau
Design: scale not given here
SETTINGS: 0.016 kg/ha, postemergence spray, rated about two-three weeks after treatment
Postemergence herbicidal rating ECHCG values for the compounds below.
Output spec: single numeric token, no unit.

Take a look at these entries with their results.
COMPOUND: C#CCOC(=O)COc1ccc(C)cc1-n1nnc2cc(F)c(-n3c(=O)cc(C(F)(F)F)n(C)c3=O)cc21
Postemergence herbicidal rating ECHCG: 9.0
--
COMPOUND: CC(C)c1ccc(-n2nnc3cc(F)c(-n4c(=O)cc(C(F)(F)F)n(C)c4=O)cc32)cc1
Postemergence herbicidal rating ECHCG: 0.0
--
COMPOUND: COC(=O)C(C)Oc1ccc(C)cc1-n1nnc2cc(F)c(-n3c(=O)cc(C(F)(F)F)n(C)c3=O)cc21 (stereo not shown)
Postemergence herbicidal rating ECHCG: 9.0
--
COMPOUND: C=CCOc1ccc(C)cc1-n1nnc2cc(F)c(-n3c(=O)cc(C(F)(F)F)n(C)c3=O)cc21
Postemergence herbicidal rating ECHCG: 1.0
--
COMPOUND: COc1ccccc1-n1nnc2cc(F)c(-n3c(=O)cc(C(F)(F)F)n(C)c3=O)cc21
Postemergence herbicidal rating ECHCG: 2.0
--
COMPOUND: COc1ccc(C)cc1-n1nnc2cc(F)c(-n3c(=O)cc(C(F)(F)F)n(C)c3=O)cc21
Postemergence herbicidal rating ECHCG: 2.0

Switching to the query record.
INPUT: Request - read-out Postemergence herbicidal rating ECHCG | tested on ECHOG Barnyardgrass | compound Cc1ccc(O)c(-n2nnc3cc(F)c(-n4c(=O)cc(C(F)(F)F)n(C)c4=O)cc32)c1
OUTPUT: 0.0

====

Test system: ZEAMX Corn, Field
TEST DESCRIPTION: Postemergence herbicidal evaluation, ZEAMX
Format: in vivo, Zea mays, L. (Sammel-Bezeichnung)
Design: scale not given here
SETTINGS: 0.016 kg/ha, postemergence spray, rated about two-three weeks after treatment
Label yes when Postemergence herbicidal rating ZEAMX is at or above 6; anything below gets no.

Example cases with answers are listed next.
COMPOUND: COc1ccc(-n2nnc3cc(F)c(-n4c(=O)cc(C(F)(F)F)n(C)c4=O)cc32)cc1
TARGET OR SYSTEM: ZEAMX Corn, Field
CATEGORY LABEL: no
--
COMPOUND: COC(=O)COc1ccc(C)c(-n2nnc3cc(F)c(-n4c(=O)cc(C(F)(F)F)n(C)c4=O)cc32)c1
TARGET OR SYSTEM: ZEAMX Corn, Field
CATEGORY LABEL: yes
--
COMPOUND: CCc1cccc(-n2nnc3cc(F)c(-n4c(=O)cc(C(F)(F)F)n(C)c4=O)cc32)c1
TARGET OR SYSTEM: ZEAMX Corn, Field
CATEGORY LABEL: no
--
COMPOUND: C=CCOc1ccc(C)cc1-n1nnc2cc(F)c(-n3c(=O)cc(C(F)(F)F)n(C)c3=O)cc21
TARGET OR SYSTEM: ZEAMX Corn, Field
CATEGORY LABEL: no
--
COMPOUND: Cc1ccccc1-n1nnc2cc(F)c(-n3c(=O)cc(C(F)(F)F)n(C)c3=O)cc21
TARGET OR SYSTEM: ZEAMX Corn, Field
CATEGORY LABEL: no
--
COMPOUND: COC(=O)COc1ccc(-n2nnc3cc(F)c(-n4c(=O)cc(C(F)(F)F)n(C)c4=O)cc32)c(C)c1
TARGET OR SYSTEM: ZEAMX Corn, Field
CATEGORY LABEL: yes

INPUT: Entry Cc1cc(O)ccc1-n1nnc2cc(F)c(-n3c(=O)cc(C(F)(F)F)n(C)c3=O)cc21 : is its Postemergence herbicidal rating ZEAMX no less than 6?
OUTPUT: no

INPUT: Entry C#CCOC(=O)COc1ccc(C)cc1-n1nnc2cc(F)c(-n3c(=O)cc(C(F)(F)F)n(C)c3=O)cc21 : is its Postemergence herbicidal rating ZEAMX no less than 6?
OUTPUT: yes

INPUT: Entry C=CCOc1ccc(-n2nnc3cc(F)c(-n4c(=O)cc(C(F)(F)F)n(C)c4=O)cc32)c(C)c1 : is its Postemergence herbicidal rating ZEAMX no less than 6?
OUTPUT: no

INPUT: Entry COC(=O)COc1ccccc1-n1nnc2cc(F)c(-n3c(=O)cc(C(F)(F)F)n(C)c3=O)cc21 : is its Postemergence herbicidal rating ZEAMX no less than 6?
OUTPUT: no

INPUT: Entry C#CCOC(=O)COc1ccc(C)c(-n2nnc3cc(F)c(-n4c(=O)cc(C(F)(F)F)n(C)c4=O)cc32)c1 : is its Postemergence herbicidal rating ZEAMX no less than 6?
OUTPUT: yes
